- measurement.target: Tyrosine-protein kinase JAK2 (Homo sapiens)
- Sequence (O60674 whole entry): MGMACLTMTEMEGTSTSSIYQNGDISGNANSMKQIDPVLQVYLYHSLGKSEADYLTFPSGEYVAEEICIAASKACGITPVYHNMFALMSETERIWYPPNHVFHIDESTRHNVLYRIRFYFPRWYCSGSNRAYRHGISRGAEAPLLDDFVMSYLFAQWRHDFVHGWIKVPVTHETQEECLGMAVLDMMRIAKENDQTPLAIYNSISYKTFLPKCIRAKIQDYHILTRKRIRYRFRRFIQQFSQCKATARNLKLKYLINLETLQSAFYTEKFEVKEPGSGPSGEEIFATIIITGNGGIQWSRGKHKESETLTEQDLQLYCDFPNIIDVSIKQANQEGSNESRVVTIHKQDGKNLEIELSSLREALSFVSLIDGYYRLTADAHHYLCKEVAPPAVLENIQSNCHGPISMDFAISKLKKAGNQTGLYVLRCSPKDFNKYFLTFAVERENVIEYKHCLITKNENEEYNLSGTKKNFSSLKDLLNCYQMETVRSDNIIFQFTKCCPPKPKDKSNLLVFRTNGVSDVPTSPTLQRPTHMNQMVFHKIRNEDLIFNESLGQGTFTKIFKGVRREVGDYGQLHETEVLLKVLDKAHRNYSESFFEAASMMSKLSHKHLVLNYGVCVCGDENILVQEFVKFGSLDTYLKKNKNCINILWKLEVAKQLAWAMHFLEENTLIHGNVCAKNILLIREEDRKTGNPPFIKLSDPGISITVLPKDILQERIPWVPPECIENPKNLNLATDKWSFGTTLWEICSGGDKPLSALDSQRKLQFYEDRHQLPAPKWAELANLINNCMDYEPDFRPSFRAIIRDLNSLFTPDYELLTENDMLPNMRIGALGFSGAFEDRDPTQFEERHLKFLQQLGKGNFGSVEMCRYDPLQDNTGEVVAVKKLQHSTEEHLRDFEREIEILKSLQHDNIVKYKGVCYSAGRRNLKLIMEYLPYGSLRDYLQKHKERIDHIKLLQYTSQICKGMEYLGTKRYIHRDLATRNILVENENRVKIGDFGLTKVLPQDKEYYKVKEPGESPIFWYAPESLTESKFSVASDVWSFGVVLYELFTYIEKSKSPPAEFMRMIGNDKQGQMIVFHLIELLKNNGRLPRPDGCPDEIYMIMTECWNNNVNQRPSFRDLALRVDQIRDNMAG
pIC50: −log10 of the molar value.
measured.parameter: pIC50

Ask: Observed pIC50 on Tyrosine-protein kinase JAK2 (Homo sapiens) for `CN1CCN(c2ccc(OC(F)(F)F)c(Nc3nccc(-c4cc(C(N)=O)cn4C)n3)c2)CC1` , please.
Result: < 5.00

---

// reported CLint scaled at 1 µM per item
- assay.details: Intrinsic clearance in human liver microsomes at 1 uM
- Format: ADME, Microsome
- measurement.conditions: read-out: CLH
Unit mL/min/kg implied. Number only.

1. CN1CCN(c2ccc(OC(F)(F)F)c(Nc3nccc(-c4cc(C(N)=O)cn4C)n3)c2)CC1 14.9

Continue with the next molecule.
Ask: Fill in: CLint scaled at 1 µM of `CN1CCN(c2ccc(OC(F)(F)F)c(Nc3nccc(-c4cc5c(n4C)CCNC5=O)n3)c2)CC1` is ___
Result: 16.5
